test_target: Fibroblast growth factor 22 (Homo sapiens)
run_description: binders of human FGF22 protein, primary screen, FGF22 synaptogenesis inhibitor project, biophysical, thermal shift, single point (AID 651658)
experimental_conditions: recombinant FGF22 thermal shift, SYPRO orange fluorescence; at 9.99 µM; percent of sucrose octasulfate shift, DMSO zero
Screen size: about 340,000 compounds; about 5,100 (1.5%) were called active.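 How the source made its calls: active means mean Tm shift, scaled 0 neutral to 100 positive control, at about 1.3% or above, every replicate too (limit read from the data); inconclusive means no clear call, values can overlap the other calls; inactive means the rest.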 The sample holds actives, similar compounds and a random draw of the others, so the mix is not that of the screen.
Could you please pick one outcome from this set? 1 (yes) for active, 0 (no) for inactive

[ask] Name the outcome recorded for Cc1nc2sc3c(c2c(=O)n1NC(=O)CCl)CCCC3 in the assay.
[reply] 0 (no)

[ask] Name the outcome recorded for Cc1ccc(NC(=O)CSc2nnc(CNC(=O)c3ccccc3F)o2)cc1Cl in the assay.
[reply] 0 (no)

[ask] Name the outcome recorded for CCc1nnc(NS(=O)(=O)c2ccc(NC(=S)NC(=O)/C=C/c3cccs3)cc2)s1 in the assay.
[reply] 1 (yes)

[ask] Name the outcome recorded for COc1ccc(NC(=O)CCNC(=O)Cn2cnc3sc4c(c3c2=O)CCCC4)cc1OC in the assay.
[reply] 0 (no)

[ask] Name the outcome recorded for CCOC(=O)c1c(NC(=S)NC(=O)/C=C/c2cccs2)sc(C)c1C in the assay.
[reply] 0 (no)

[ask] Name the outcome recorded for COc1ccc(CNC(=O)CN2C(=O)c3ccccc3S2(=O)=O)cc1 in the assay.
[reply] 0 (no)

[ask] Name the outcome recorded for O=C(Cc1ccncc1)NCC[C@H]1CC[C@H](NC(=O)Nc2cccc(F)c2)[C@H](CO)O1 in the assay.
[reply] 0 (no)

[ask] Name the outcome recorded for CCc1nnc(NC(=O)c2cccc(S(=O)(=O)N(C)c3ccc(OC)cc3)c2)s1 in the assay.
[reply] 0 (no)

[ask] Name the outcome recorded for CCc1nnc(NS(=O)(=O)c2ccc(NC(=S)NC(=O)c3cccs3)cc2)s1 in the assay.
[reply] 0 (no)

[ask] Name the outcome recorded for CCc1nc2ccccc2c(C(=O)OC2CCCCC2=O)c1C (stereo not given) in the assay.
[reply] 0 (no)

====

Consider the following compounds; for each one, report its activity (Tm shift, normalised).
test_target: Fibroblast growth factor 22 (Homo sapiens)
run_description: binders of human FGF22 protein, primary screen, FGF22 synaptogenesis inhibitor project, biophysical, thermal shift, single point (AID 651658)
experimental_conditions: recombinant FGF22 thermal shift, SYPRO orange fluorescence; at 9.99 µM; stronger effect = higher value; percent of sucrose octasulfate shift, DMSO zero
The campaign covered roughly 340,000 compounds. About 5,100 (1.5%) were called active. The sample as a whole holds a higher share of actives than the screen did.

[ask] Form field: reported activity (Tm shift, normalised) of CCc1cc(-c2n[nH]c(=S)n2CC(C)C)cs1
[reply] -0.833% (inactive)

[ask] Form field: reported activity (Tm shift, normalised) of Cc1cc(C)cc(OCC(=O)NNC(=O)CCN2C(=O)c3ccccc3C2=O)c1
[reply] 43.2% (active)

[ask] Form field: reported activity (Tm shift, normalised) of O=C(CN1C(=O)S/C(=C\c2ccccc2F)C1=O)NCCCn1ccnc1
[reply] -0.15% (inactive)

[ask] Form field: reported activity (Tm shift, normalised) of Cc1cc(C)cc(NC(=O)C2CCCN(S(=O)(=O)c3ccc4[nH]c(=O)ccc4c3)C2)c1 (stereo not given)
[reply] -0.297% (inactive)

[ask] Form field: reported activity (Tm shift, normalised) of Cc1cc(C)cc(NC(=O)CCN2C(=O)c3ccccc3C2=O)c1
[reply] 0.073% (inactive)

[ask] Form field: reported activity (Tm shift, normalised) of CC1CCN(S(=O)(=O)c2ccc3[nH]c(=O)ccc3c2)CC1
[reply] 43.3% (active)

[ask] Form field: reported activity (Tm shift, normalised) of CCn1c(SCC(=O)N(C)C2CCS(=O)(=O)C2)nnc1-c1cccs1 (stereo not given)
[reply] 43.9% (active)

[ask] Form field: reported activity (Tm shift, normalised) of Cn1cccc1/C=C1\SC(=O)N(CC(=O)Nc2ccc(F)cc2)C1=O
[reply] 43% (active)

[ask] Form field: reported activity (Tm shift, normalised) of CC1CCN(S(=O)(=O)c2ccc3c(c2)n(C)c(=O)n3C)CC1
[reply] 0.113% (inactive)

[ask] Form field: reported activity (Tm shift, normalised) of CN(C(=O)CSc1nnc(-c2ccc(C(C)(C)C)cc2)n1C)C1CCS(=O)(=O)C1 (stereo not given)
[reply] 0.442% (inactive)

====

test_target: Fibroblast growth factor 22 (Homo sapiens)
run_description: binders of human FGF22 protein, primary screen, FGF22 synaptogenesis inhibitor project, biophysical, thermal shift, single point (AID 651658)
experimental_conditions: recombinant FGF22 thermal shift, SYPRO orange fluorescence; at 9.99 µM; percent of sucrose octasulfate shift, DMSO zero
Out of some 340,000 compounds screened, about 5,100 (1.5%) were called active.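 Rule for the calls: active = mean Tm shift, scaled 0 neutral to 100 positive control, at about 1.3% or above, every replicate too (limit read from the data); inconclusive = no clear call, values can overlap the other calls; inactive = the rest.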 For the sample, actives were picked, then their nearest neighbours and some compounds at random.
Could you please pick one outcome from this set? 1 (active), 0 (inactive)

[ask] Name the outcome recorded for COc1ccc(NC(=O)Nc2ccc3c(c2)[C@@H]2C[C@H](CC(=O)N4CCCCC4)O[C@H](CO)[C@@H]2O3)cc1 in the assay.
[reply] 0

[ask] Name the outcome recorded for CCOC(=O)CNC(=O)/C(=C\c1ccc(F)cc1)NC(=O)c1ccccc1 in the assay.
[reply] 0

[ask] Name the outcome recorded for COc1ccc2c3c([nH]c2c1)[C@H](CO)N(C(=O)C1CCCCC1)CC31CCN(C(=O)c2ccncc2)CC1 in the assay.
[reply] 0

[ask] Name the outcome recorded for COc1ccc(CN2CCNC(=O)C2CC(=O)N(C)Cc2ccccn2)cc1OC (centres undefined) in the assay.
[reply] 0

[ask] Name the outcome recorded for C[C@@H]1CCCCO[C@@H](CN(C)S(=O)(=O)c2ccccc2)[C@H](C)CN([C@H](C)CO)C(=O)c2cc(NC(=O)Nc3ccc4c(c3)OCO4)ccc2O1 in the assay.
[reply] 0

[ask] Name the outcome recorded for CN(C)C(=O)c1cccc(-c2ccccc2[C@@H]2[C@@H](CO)N(C(=O)C3CCCCC3)[C@H]2C#N)c1 in the assay.
[reply] 0

[ask] Name the outcome recorded for O=C1CC(c2ccccc2)C(=O)N2C(=O)CC(c3ccccc3)C(=O)N12 (centres undefined) in the assay.
[reply] 0

[ask] Name the outcome recorded for O=C1OCC2=C1C(c1ccccc1)CC(=O)N2c1cccc(F)c1 (centres undefined) in the assay.
[reply] 1

[ask] Name the outcome recorded for COc1ccc(Cc2nnc(N/N=C/c3ccccc3O)[nH]c2=O)cc1OC in the assay.
[reply] 0

[ask] Name the outcome recorded for COc1cccc(CN2CCNC(=O)C2CC(=O)N(C)CCc2ccccn2)c1 (centres undefined) in the assay.
[reply] 1

[ask] Name the outcome recorded for COc1ccccc1NC(=O)CSc1nnc(CNC(=O)c2ccccc2F)o1 in the assay.
[reply] 0

[ask] Name the outcome recorded for Nc1nonc1-n1nnc(C(=O)N/N=C/C2CCCCC2)c1-c1ccccc1 in the assay.
[reply] 0

[ask] Name the outcome recorded for CN(CCc1cn[nH]c1)C(=O)CC1C(=O)NCCN1Cc1cccc(Oc2ccccc2)c1 (centres undefined) in the assay.
[reply] 0

[ask] Name the outcome recorded for CN1C(=O)CC(c2ccccc2)C1=O (centres undefined) in the assay.
[reply] 0

[ask] Name the outcome recorded for COc1cccc(S(=O)(=O)N2CC3(CCN(C)CC3)c3c(n(C)c4cc(OC)ccc34)[C@H]2CO)c1 in the assay.
[reply] 0

[ask] Name the outcome recorded for CCCC#Cc1ccc([C@H]2[C@H](CO)N3CCCCN(C(=O)c4ccc5c(c4)OCO5)C[C@@H]23)cc1 in the assay.
[reply] 0

[ask] Name the outcome recorded for Cn1c(=O)cc(OCC(=O)N2CCN(c3ccccc3F)CC2)c2ccccc21 in the assay.
[reply] 1

[ask] Name the outcome recorded for COc1ccc(/C=C(/NC(=O)c2ccccc2)C(=O)Nc2cccc(C(=O)O)c2)cc1 in the assay.
[reply] 0

[ask] Name the outcome recorded for COc1cccc(/C=N/Nc2ccc(S(=O)(=O)Nc3ccccc3C(=O)O)cc2[N+](=O)[O-])c1O in the assay.
[reply] 0
